System: MOLT-4 leukemia
Assay info: NCI-60 one-dose screen, 48 h (100 = growth as untreated, 0 = no growth, -100 = all killed)
Assay setup: 10 µM unless noted
Method: Growth inhibition of the MOLT-4 human tumor cell line is measured as a screen for anti-cancer activity. Cells are grown in 96 well plates and exposed to the test compound for 48 hours. Compounds are tested at a single concentration, which is 10^-5 M for most compounds. The reported endpoint is percent growth (GI% or GIPRCNT), where numbers from 0 - 100% represent growth inhibition, and numbers from -100% - 0 represent cell death. For example, a value of 40 represents 60% growth inhibition. […]
Compounds without any hit were thinned out: in the full panel of roughly 83,000, 20% have a hit.
Reported growth values are given for each entry in this list.
Entry rule: numbers only, all in %.

Query: growth; subject: `C[C@@]1(CCCCCCCCCc2ccc(O)cc2)C[C@]2(C)OC(=O)C[C@@H]2OO1`
78

Query: growth; subject: `O=C(N/N=C\c1ccc(N(CCCl)CCCl)cc1Cl)c1cccnc1`
87.5

Query: growth; subject: `CSc1nc(Cl)cc(N2CC2)n1`
108

Query: growth; subject: `CC[C@H](C)[C@@H]1OC(=O)C(C)(C)[C@H](O)[C@H](Cc2ccccc2)OC(=O)[C@H](C(C)C)OC(=O)[C@@H](NC(=O)c2cccc(NC=O)c2O)[C@@H](C)OC1=O`
37.7

Query: growth; subject: `CC(=O)O[C@H]1CC[C@]2(C)[C@H]3CC[C@]4(C)[C@@H](OC(C)=O)CC[C@H]4[C@@H]3[C@@H](C)[C@]2(O)C1`
87.9
